Target sequence: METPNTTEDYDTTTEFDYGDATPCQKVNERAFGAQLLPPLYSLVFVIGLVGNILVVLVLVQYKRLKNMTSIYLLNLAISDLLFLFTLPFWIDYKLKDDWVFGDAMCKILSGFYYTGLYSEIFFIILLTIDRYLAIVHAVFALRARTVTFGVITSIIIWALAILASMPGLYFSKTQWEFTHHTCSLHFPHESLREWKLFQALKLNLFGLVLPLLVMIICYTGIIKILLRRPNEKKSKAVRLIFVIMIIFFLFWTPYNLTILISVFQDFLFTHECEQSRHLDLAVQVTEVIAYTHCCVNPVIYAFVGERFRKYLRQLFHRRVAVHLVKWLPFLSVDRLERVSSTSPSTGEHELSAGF
pIC50: −log10 of the molar value.
ASSAY_METRIC: pIC50

Report pIC50 for `CC(=O)c1cc2c(=O)c3c(C(=O)O)c(O)c(O)cc3oc2c(C(C)=O)c1-c1coc2cc(O)c(O)c(C(=O)O)c2c1=O` please.
< 5.00

====

Molecular target: Matrix Metalloproteinase-3 (MMP-3) (Homo sapiens)
ASSAY_METRIC: IC50

Give the reported IC50 for CC(=O)c1cc2c(=O)c3c(C(=O)O)c(O)c(O)cc3oc2c(C(C)=O)c1-c1coc2cc(O)c(O)c(C(=O)O)c2c1=O [SM-345431, Vinaxanthone] (system: Matrix Metalloproteinase-3 (MMP-3) (Homo sapiens)).
> 10 µM

====

Target: UniProt:P09237
Sequence (P09237 95-267, species assumed): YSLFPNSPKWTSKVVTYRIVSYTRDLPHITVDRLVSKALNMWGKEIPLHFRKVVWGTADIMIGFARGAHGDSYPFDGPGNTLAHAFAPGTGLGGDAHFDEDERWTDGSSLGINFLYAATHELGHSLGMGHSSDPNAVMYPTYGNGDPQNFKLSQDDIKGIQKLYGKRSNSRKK
ASSAY_METRIC: pIC50
One number for each entry, as −log10 of the molar value.

Param readout = pIC50; param system = UniProt:P09237; param query = `CC(=O)c1cc2c(=O)c3c(C(=O)O)c(O)c(O)cc3oc2c(C(C)=O)c1-c1coc2cc(O)c(O)c(C(=O)O)c2c1=O` ; response: value
5.00

====

Target: Caspase 6 (Homo sapiens, UniProt P55212)
Sequence (P55212 24-179 limits assumed): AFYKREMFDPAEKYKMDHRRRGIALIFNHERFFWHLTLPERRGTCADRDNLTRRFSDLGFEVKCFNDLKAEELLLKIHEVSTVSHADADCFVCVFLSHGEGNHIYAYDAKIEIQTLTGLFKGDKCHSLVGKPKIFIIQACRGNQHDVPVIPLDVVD
Sequence (P55212 194-293 limits assumed): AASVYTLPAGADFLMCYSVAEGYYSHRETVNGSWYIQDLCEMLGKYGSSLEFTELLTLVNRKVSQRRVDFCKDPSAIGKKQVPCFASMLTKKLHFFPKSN
pIC50: −log10 of the molar value.
ASSAY_METRIC: pIC50

Entry `CC(=O)c1cc2c(=O)c3c(C(=O)O)c(O)c(O)cc3oc2c(C(C)=O)c1-c1coc2cc(O)c(O)c(C(=O)O)c2c1=O` has what pIC50?
< 5.00

====

Biological target: KDR (Homo sapiens)
Sequence (P35968 20-1356, species assumed): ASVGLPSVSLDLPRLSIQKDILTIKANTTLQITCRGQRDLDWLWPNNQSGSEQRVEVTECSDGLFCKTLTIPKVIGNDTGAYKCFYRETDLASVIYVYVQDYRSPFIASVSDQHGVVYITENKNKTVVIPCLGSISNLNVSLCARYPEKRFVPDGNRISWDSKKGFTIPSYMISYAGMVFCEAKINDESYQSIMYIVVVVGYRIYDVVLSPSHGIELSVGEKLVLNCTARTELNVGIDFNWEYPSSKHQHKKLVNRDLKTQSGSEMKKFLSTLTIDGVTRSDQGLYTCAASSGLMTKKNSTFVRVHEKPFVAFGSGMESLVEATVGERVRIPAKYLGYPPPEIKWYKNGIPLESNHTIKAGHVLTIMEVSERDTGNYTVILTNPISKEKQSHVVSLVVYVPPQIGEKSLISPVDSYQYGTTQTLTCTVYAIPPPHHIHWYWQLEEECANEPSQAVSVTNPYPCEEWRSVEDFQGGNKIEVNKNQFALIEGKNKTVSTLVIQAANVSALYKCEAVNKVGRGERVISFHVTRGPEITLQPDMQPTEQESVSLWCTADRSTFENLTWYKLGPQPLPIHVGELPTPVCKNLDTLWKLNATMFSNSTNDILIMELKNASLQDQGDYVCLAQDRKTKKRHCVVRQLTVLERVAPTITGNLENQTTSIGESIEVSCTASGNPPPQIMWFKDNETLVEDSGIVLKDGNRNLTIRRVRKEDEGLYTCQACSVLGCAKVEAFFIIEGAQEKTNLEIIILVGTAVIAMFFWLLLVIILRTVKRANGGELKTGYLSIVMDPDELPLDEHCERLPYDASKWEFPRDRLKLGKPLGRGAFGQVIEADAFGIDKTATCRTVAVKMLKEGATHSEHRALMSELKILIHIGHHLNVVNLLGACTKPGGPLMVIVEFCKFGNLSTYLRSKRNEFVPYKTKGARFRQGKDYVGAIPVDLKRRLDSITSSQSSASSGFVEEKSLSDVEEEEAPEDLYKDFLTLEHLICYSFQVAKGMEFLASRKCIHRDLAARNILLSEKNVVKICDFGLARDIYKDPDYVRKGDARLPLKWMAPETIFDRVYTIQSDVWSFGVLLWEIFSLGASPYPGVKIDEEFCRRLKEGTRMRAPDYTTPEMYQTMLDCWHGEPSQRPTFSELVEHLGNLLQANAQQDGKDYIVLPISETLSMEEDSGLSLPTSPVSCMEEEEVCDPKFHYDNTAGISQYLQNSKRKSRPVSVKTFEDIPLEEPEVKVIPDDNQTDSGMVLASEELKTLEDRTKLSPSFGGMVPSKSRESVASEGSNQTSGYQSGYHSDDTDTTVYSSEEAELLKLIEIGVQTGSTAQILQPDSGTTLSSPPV
ASSAY_METRIC: IC50

What value of IC50 has been reported for the following molecule? `CC(=O)c1cc2c(=O)c3c(C(=O)O)c(O)c(O)cc3oc2c(C(C)=O)c1-c1coc2cc(O)c(O)c(C(=O)O)c2c1=O`
> 10 µM

====

Target: PI 3-Kγ (Homo sapiens)
pIC50: −log10 of the molar value.
ASSAY_METRIC: pIC50

Reported pIC50 for PI 3-Kγ (Homo sapiens), given CC(=O)c1cc2c(=O)c3c(C(=O)O)c(O)c(O)cc3oc2c(C(C)=O)c1-c1coc2cc(O)c(O)c(C(=O)O)c2c1=O [SM-345431, Vinaxanthone] ?
< 5.00

====

Biological target: EphA2 (Homo sapiens, UniProt P29317)
Sequence (P29317 24-976, species assumed): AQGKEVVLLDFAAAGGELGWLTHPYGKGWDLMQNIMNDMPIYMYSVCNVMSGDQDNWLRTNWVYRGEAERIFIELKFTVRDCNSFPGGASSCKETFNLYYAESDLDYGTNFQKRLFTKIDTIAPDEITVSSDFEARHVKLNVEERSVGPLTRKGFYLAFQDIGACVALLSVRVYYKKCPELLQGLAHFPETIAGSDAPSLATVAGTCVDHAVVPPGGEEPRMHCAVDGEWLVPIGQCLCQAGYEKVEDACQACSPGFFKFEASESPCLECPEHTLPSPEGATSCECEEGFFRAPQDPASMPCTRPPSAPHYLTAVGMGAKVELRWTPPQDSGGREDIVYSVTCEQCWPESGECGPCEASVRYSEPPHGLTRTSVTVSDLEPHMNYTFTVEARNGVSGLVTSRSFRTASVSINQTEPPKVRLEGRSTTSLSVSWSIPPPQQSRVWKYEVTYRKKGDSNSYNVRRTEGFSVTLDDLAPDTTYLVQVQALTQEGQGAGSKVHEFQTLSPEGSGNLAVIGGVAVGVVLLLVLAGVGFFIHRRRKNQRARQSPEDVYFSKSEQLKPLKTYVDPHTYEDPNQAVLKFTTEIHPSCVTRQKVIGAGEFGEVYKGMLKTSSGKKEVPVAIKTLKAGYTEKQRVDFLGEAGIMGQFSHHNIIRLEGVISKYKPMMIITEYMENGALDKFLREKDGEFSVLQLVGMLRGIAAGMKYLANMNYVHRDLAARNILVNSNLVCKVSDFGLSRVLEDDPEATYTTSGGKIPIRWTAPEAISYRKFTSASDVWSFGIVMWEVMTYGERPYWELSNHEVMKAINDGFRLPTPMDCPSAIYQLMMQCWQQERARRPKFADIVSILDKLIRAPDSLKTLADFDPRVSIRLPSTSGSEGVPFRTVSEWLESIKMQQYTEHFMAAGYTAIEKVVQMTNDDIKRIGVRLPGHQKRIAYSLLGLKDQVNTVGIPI
ASSAY_METRIC: IC50

What does the data say about its IC50? Entry: `CC(=O)c1cc2c(=O)c3c(C(=O)O)c(O)c(O)cc3oc2c(C(C)=O)c1-c1coc2cc(O)c(O)c(C(=O)O)c2c1=O`
> 10 µM

====

Target: MKK6 (Homo sapiens)
Sequence (P52564 whole entry, species assumed): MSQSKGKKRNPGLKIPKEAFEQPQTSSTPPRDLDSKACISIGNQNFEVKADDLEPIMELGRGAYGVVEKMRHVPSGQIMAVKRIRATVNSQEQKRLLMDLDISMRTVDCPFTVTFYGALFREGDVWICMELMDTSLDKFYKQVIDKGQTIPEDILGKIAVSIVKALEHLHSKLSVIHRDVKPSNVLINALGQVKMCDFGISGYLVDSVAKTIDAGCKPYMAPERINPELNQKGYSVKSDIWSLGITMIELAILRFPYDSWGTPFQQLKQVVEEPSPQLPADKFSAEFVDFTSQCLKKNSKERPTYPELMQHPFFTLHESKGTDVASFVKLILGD
pIC50: −log10 of the molar value.
ASSAY_METRIC: pIC50

Please report the recorded pIC50 for `CC(=O)c1cc2c(=O)c3c(C(=O)O)c(O)c(O)cc3oc2c(C(C)=O)c1-c1coc2cc(O)c(O)c(C(=O)O)c2c1=O` .
< 5.00

====

Biological target: EGFR (Homo sapiens)
Sequence (P00533 25-1210, species assumed): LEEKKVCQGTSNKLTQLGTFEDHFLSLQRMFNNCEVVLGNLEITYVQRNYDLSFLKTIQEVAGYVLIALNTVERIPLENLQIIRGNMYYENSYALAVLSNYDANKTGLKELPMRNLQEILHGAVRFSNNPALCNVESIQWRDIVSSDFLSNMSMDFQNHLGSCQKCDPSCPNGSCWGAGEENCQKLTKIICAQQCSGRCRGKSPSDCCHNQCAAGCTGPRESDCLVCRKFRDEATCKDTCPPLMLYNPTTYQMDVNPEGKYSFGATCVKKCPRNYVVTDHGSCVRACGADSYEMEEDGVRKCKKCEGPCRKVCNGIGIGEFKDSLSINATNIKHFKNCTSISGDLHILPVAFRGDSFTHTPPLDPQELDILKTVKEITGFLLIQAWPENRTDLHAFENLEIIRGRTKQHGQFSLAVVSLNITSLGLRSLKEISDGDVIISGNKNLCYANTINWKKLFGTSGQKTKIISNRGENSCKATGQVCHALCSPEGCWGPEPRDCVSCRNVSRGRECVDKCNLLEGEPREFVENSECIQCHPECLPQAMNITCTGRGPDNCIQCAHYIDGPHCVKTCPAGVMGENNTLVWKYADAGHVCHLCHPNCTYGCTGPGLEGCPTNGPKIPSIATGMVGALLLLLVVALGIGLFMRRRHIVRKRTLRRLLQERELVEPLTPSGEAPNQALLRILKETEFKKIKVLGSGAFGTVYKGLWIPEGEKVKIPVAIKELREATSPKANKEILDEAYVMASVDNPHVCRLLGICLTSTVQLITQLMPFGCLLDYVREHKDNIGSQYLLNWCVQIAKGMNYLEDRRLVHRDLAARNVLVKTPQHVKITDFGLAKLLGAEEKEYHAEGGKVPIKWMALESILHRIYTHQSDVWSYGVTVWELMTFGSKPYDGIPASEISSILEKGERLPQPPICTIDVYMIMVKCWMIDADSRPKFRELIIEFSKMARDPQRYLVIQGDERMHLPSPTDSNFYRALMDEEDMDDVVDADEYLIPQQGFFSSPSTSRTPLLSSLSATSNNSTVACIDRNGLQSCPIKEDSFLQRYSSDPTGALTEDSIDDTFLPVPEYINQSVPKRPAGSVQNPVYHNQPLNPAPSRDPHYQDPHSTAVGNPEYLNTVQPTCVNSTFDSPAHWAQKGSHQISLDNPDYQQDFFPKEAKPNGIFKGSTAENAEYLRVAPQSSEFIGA
ASSAY_METRIC: pIC50
Give bare numbers, as −log10 of the molar value.

API: value(readout= pIC50, system= EGFR (Homo sapiens), query= `CC(=O)c1cc2c(=O)c3c(C(=O)O)c(O)c(O)cc3oc2c(C(C)=O)c1-c1coc2cc(O)c(O)c(C(=O)O)c2c1=O` )
6.05

====

Target: Fyn (Homo sapiens, UniProt P06241)
pIC50: −log10 of the molar value.
ASSAY_METRIC: pIC50

I'd like to know its pIC50. The compound in question is CC(=O)c1cc2c(=O)c3c(C(=O)O)c(O)c(O)cc3oc2c(C(C)=O)c1-c1coc2cc(O)c(O)c(C(=O)O)c2c1=O [SM-345431, Vinaxanthone]
< 5.00

====

Target: Protein Tyrosine Phosphatase, CD45 (Homo sapiens)
ASSAY_METRIC: IC50

Record CC(=O)c1cc2c(=O)c3c(C(=O)O)c(O)c(O)cc3oc2c(C(C)=O)c1-c1coc2cc(O)c(O)c(C(=O)O)c2c1=O [SM-345431, Vinaxanthone] : what is its IC50 with Protein Tyrosine Phosphatase, CD45 (Homo sapiens)?
> 10 µM

====

Tested on: Mediator release, IL-1beta
Assay: Pharmacological profile: mediator release
Format: cell-based
pIC50: −log10 of the molar value.
ASSAY_METRIC: pIC50

For `CC(=O)c1cc2c(=O)c3c(C(=O)O)c(O)c(O)cc3oc2c(C(C)=O)c1-c1coc2cc(O)c(O)c(C(=O)O)c2c1=O` , what is its reported pIC50?
< 5.00

====

Biological target: cSRC (Homo sapiens)
Sequence (P12931 whole entry, species assumed): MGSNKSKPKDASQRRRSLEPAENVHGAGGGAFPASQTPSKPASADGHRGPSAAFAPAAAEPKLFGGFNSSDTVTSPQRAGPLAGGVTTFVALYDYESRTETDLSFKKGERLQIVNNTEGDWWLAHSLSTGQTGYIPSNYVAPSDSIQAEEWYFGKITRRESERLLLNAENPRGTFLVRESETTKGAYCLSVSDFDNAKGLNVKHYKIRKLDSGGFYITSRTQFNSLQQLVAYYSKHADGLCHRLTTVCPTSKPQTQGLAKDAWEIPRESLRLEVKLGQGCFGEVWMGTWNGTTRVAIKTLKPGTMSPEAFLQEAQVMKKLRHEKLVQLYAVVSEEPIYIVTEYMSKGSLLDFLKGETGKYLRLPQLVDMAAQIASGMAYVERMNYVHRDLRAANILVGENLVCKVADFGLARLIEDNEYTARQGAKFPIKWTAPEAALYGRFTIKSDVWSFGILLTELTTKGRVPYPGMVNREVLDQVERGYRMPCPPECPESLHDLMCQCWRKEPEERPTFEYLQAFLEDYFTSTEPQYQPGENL
ASSAY_METRIC: IC50

Query: IC50; subject: CC(=O)c1cc2c(=O)c3c(C(=O)O)c(O)c(O)cc3oc2c(C(C)=O)c1-c1coc2cc(O)c(O)c(C(=O)O)c2c1=O [SM-345431, Vinaxanthone]
> 10 µM

====

Target: PKCγ (Homo sapiens, UniProt P05129)
ASSAY_METRIC: IC50

Give its IC50 value. Item: `CC(=O)c1cc2c(=O)c3c(C(=O)O)c(O)c(O)cc3oc2c(C(C)=O)c1-c1coc2cc(O)c(O)c(C(=O)O)c2c1=O`
> 10 µM

====

Molecular target: SAPK2a (Homo sapiens, UniProt Q16539)
Sequence (Q16539 whole entry, species assumed): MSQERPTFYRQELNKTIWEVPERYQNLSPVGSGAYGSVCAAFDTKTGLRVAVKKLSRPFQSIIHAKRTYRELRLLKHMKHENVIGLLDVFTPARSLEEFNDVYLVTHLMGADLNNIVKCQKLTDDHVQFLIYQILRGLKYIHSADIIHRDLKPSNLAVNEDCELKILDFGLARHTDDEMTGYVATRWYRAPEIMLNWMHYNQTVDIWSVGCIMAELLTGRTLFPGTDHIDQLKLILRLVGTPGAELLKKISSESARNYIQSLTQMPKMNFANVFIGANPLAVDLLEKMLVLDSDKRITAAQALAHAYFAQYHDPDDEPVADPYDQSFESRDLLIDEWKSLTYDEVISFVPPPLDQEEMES
pIC50: −log10 of the molar value.
ASSAY_METRIC: pIC50

Look up pIC50: CC(=O)c1cc2c(=O)c3c(C(=O)O)c(O)c(O)cc3oc2c(C(C)=O)c1-c1coc2cc(O)c(O)c(C(=O)O)c2c1=O [SM-345431, Vinaxanthone]
< 5.00

====

Target: Semaphorin (Homo sapiens, UniProt Q14563)
Sequence (Q14563 21-771): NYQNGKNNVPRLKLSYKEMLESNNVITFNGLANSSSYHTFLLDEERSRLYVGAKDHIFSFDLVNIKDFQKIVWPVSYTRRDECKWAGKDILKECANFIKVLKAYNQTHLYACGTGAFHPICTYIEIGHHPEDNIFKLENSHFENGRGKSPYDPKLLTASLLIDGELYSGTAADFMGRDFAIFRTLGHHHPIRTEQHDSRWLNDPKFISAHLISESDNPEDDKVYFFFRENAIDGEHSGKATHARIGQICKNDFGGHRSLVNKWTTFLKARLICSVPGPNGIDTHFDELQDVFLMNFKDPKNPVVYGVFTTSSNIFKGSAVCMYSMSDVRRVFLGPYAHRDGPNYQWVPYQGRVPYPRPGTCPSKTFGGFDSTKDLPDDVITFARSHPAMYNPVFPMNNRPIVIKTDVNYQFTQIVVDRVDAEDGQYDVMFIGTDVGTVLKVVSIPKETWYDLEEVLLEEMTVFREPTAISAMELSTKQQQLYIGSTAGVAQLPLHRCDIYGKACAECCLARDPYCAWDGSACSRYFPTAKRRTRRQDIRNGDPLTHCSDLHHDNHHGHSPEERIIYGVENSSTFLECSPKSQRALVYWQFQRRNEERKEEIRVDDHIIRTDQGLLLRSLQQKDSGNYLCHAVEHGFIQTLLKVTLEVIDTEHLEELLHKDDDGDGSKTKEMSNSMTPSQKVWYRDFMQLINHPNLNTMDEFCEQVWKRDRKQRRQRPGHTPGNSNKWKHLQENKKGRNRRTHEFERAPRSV
Test: Pharmacological profile: semaphorin inhibition
pIC50: −log10 of the molar value.
ASSAY_METRIC: pIC50

Report pIC50 for `CC(=O)c1cc2c(=O)c3c(C(=O)O)c(O)c(O)cc3oc2c(C(C)=O)c1-c1coc2cc(O)c(O)c(C(=O)O)c2c1=O` please.
6.70 to 7.00

====

Molecular target: semaphorin3A (Homo sapiens, UniProt Q14563)
Assay: Growth cone collapse assay, E8 chick DRG
Assay type: cell-based
Parameters: expressed in transfected cells; host or cells: COS7
Conditions: read-out: semaphorin3A inhibiting activity, IC50
pIC50: −log10 of the molar value.
ASSAY_METRIC: pIC50

// lookup pIC50 | system=semaphorin3A (Homo sapiens, UniProt Q14563) | key= CC(=O)c1cc2c(=O)c3c(C(=O)O)c(O)c(O)cc3oc2c(C(C)=O)c1-c1coc2cc(O)c(O)c(C(=O)O)c2c1=O [SM-345431, Vinaxanthone]
6.70 to 7.00
